- studyTarget: protein farnesyltransferase (Rattus norvegicus, UniProt Q02293+Q04631)
- Construct: Rat brain protein farnesyltransferase activity is measured; from tissue; host or cells: rat brain; purified according to Reiss et al., Cell 62:81-88 (1990), steps one through three
- assayComment: in vitro inhibition of protein farnesyltransferase (scintillation proximity assay, biotin-K Ras B fragment)
- Type: biochemical
- experimentalParameters: at 1 × 10^-8 M
% inhibition of farnesyltransferase overview
The reply should contain only the number, in %.

Consider the following illustrative entries.
compound	unitInfo	% inhibition of farnesyltransferase
CCCCC(OCc1ccc(C(=O)N[C@@H](CCSC)C(=O)O)c(-c2ccccc2C)c1)c1cncs1 (some centres unmarked)	%	89
CSCC[C@H](NC(=O)c1ccc(CO[C@H](CSC)CC2CCCCC2)cc1-c1ccccc1C)C(=O)O	%	79
CSCC[C@H](NC(=O)c1ccc(COCc2cc(-c3ccc(Cl)cc3)co2)cc1-c1ccccc1C)C(=O)[O-].[Li+]	%	85
CSCC[C@H](NC(=O)c1ccc(CN2CCC[C@H]2COc2ccccc2)cc1-c1ccccc1C)C(=O)O	%	69
CSCC[C@H](NC(=O)c1ccc(COCc2cnc(-c3ccccc3Cl)s2)cc1-c1ccccc1C)C(=O)[O-].[Li+]	%	76

The reported value for "CSCC[C@H](NC(=O)c1ccc(COCc2cnc(-c3ccccc3Cl)o2)cc1-c1ccccc1C)C(=O)[O-].[Li+]" in terms of % inhibition of farnesyltransferase is 59

Looking up "CSCC[C@H](NC(=O)c1ccc(COCc2occc2-c2ccc(Cl)cc2)cc1-c1ccccc1C)C(=O)[O-].[Li+]" , I found its % inhibition of farnesyltransferase recorded as 77

// sample "CSCC[C@H](NC(=O)c1ccc(CO[C@H](CSc2ccccc2)CC2CCCCC2)cc1-c1ccccc1C)C(=O)O" , its % inhibition of farnesyltransferase was 94

meta.source: patent US6310095A
